Examples of molecules with documented pIC50 follow.
target: Recombinant human MMP14 catalytic domain (Homo sapiens, UniProt P50281); construct: Recombinant human MMP14 catalytic domain; assay: Isolated enzyme assay MMP14 (fluorogenic substrate); conditions: substrate Mca-Pro-Cha-Gly-Nva-His-Ala-Dpa-NH2 10 μM, 60 minutes at room temperature, pH 7.5, read-out: hMMP14 IC50
For clarity, pIC50 is expressed as the negative log10 of concentration in mol/L.

>>> result_number("C[C@]1(CS(=O)(=O)N2CCc3cc(-c4ccc(Cl)cc4)ncc3C2)NC(=O)NC1=O")
5.70

We now examine a further molecule.
Answer with reported pIC50 of C[C@]1(CS(=O)(=O)N2CCc3cc(-c4ccc(Cl)cc4)ccc3C2)NC(=O)NC1=O
6.38

* * *

Examples of compounds with documented IC50 follow.
biological target: Recombinant human MMP9 catalytic domain (Homo sapiens, UniProt P14780); assay: Isolated enzyme assay MMP9 (fluorogenic substrate); conditions: substrate Mca-Pro-Cha-Gly-Nva-His-Ala-Dpa-NH2 5 μM, 30 minutes at RT, pH 7.3, read-out: hMMP9 IC50
Sequence (P14780 with tags, fused parts or gaps DEL216-390): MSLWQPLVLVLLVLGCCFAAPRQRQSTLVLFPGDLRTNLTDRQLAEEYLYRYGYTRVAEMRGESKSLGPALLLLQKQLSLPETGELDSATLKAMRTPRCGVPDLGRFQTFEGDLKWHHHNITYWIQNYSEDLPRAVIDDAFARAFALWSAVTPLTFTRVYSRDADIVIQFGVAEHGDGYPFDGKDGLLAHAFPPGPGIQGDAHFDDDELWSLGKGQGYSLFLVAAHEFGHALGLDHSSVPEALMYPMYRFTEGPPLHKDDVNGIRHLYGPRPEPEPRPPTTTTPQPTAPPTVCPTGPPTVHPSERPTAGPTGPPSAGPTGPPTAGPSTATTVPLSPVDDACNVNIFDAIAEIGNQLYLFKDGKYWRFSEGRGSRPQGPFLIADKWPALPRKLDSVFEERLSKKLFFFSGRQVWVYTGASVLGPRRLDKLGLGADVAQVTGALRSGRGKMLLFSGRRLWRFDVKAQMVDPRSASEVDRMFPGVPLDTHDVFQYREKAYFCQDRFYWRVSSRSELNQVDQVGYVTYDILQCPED
Your answer should be a plain number; it is taken to be in nM.

Worked examples follow.
>>> result_number("C[C@]1(CS(=O)(=O)N2CCc3cc(-c4ccc(Cl)cc4)ccc3C2)NC(=O)NC1=O [Example 2]")
3.5
>>> result_number("C[C@]1(CS(=O)(=O)N2CCc3cc(-c4cnc(C(F)(F)F)nc4)ccc3C2)NC(=O)NC1=O [Example 1]")
29.3

We now examine a further compound.
Answer with reported IC50 of C[C@]1(CS(=O)(=O)N2CCc3cc(-c4ccc(Cl)cc4)ncc3C2)NC(=O)NC1=O [Example 5]
8.3

Data origin, for the record: patent US7700604B2
